Documented Bound [^3H] SA AtSB2L1 across a set of compounds
# target.system: AtSB2L1 (Arabidopsis thaliana)
# Construct: made in house
# Sequence (Q8S8S9 whole entry): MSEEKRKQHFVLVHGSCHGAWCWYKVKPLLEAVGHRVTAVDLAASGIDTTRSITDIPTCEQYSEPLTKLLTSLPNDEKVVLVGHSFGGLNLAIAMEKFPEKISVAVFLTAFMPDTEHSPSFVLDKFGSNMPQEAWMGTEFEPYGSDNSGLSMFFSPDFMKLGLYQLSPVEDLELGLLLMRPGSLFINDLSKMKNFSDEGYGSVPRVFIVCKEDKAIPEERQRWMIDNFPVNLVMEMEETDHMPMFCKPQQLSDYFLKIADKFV
# test: [3H] salicylic acid-binding assay with unlabeled competitors, Arabidopsis homolog produced in E. coli
# condition.notes: 1 mM unlabeled competitor; protein produced in E. coli; no competitor = 70 dpm
The answer is to be given in dpm; state only the numeric part.

# compound, target.system, measured
records = [
    ("O=C(O)c1ccc(O)cc1 [4-HBA, 4-hydroxybenzoic acid]", "AtSB2L1 (Arabidopsis thaliana)", 65),
    ("O=C(O)c1cc(Cl)ccc1O", "AtSB2L1 (Arabidopsis thaliana)", 38),
    ("O=C(O)c1c(O)cccc1O [2,6-DHBA, 2,6-dihydroxybenzoic acid]", "AtSB2L1 (Arabidopsis thaliana)", 36),
]

Form field: reported Bound [^3H] SA AtSB2L1 of O=C(O)c1ccccc1O
42
